# protocol_notes: NCI Yeast Anticancer Drug Screen. Data for the bub3 strain (AID 167)
# condition_label: S. cerevisiae bub3 mutant strain, at 50.0 µM (retest, dose inferred, filed as 5.0), active compounds read high
This is part of a sample that, as a whole, favours compounds with a hit. Of some 79,000 tested, about 15% had one in any assay.
This listing pairs compounds with measured growth inhibition.
Your answer should be a plain number; it is taken to be in %.

Completed entries (count: 5):
INSERT INTO measurements (compound, property_name, quantity_unit, measured_value) VALUES
  ('CCN(CC)CCC(=O)c1ccc(Oc2ccc(C)cc2)cc1', 'growth inhibition', '%', 89),
  ('Brc1ccc(N=Nc2ccc(-c3ccc[cH-]3)cc2)cc1.[Fe+2].c1cc[cH-]c1', 'growth inhibition', '%', 9),
  ('CCOC(=O)N/N=C/c1ccc(N(C)CCC#N)cc1', 'growth inhibition', '%', 15),
  ('CCCCCCCCCCCCCC(=O)NO', 'growth inhibition', '%', 98),
  ('CCOc1ccc(/C=C2\NC(=S)N(/C=C3\C(=O)Oc4ccccc4C3=O)C2=O)cc1', 'growth inhibition', '%', 76);

stdin: For the compound CCCCC(CSC#N)SC#N (configuration not stated) , what growth inhibition is on record?
stdout: 97

stdin: // lookup growth inhibition for COc1ccc(C(=O)Cc2ccc(Cl)cc2)cc1OC
stdout: -1

###

# protocol_notes: NCI Yeast Anticancer Drug Screen. Data for the sgs1 mgt1 strain (AID 161);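 also: 0% = growth of cultures given vehicle only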
# condition_label: S. cerevisiae sgs1 mgt1 strain, at 50.0 µM (retest, dose inferred, filed as 5.0), active compounds read high
Compounds without any hit were thinned out: in the full panel of roughly 79,000, 15% have a hit.
Cut-off 50% on growth inhibition, inclusive. At or above means 1.0; below means 0.0.

INSERT INTO assay_data (compound, group_label) VALUES
  ('CCCCCCCCCCCC[n+]1ccc(C#N)cc1', 1.0),
  ('CCCCCCCCCCSCCO', 1.0),
  ('N#Cc1c2c(c(N=[N+]=[N-])n3c1nc1ccccc13)CCCC2', 1.0),
  ('CCCCCC(C)(O)C#CC(C)(O)CCCCC (configuration not stated)', 1.0),
  ('COc1ccc(-c2n[nH]c(C(F)(F)F)c2N=NN(C)C)cc1OC', 1.0);

stdin: Entry CCC[CH2][Sn]([CH2]CCC)([O]C(=O)c1cc(OC)c(OC)cc1OC)[O]C(=O)c1cc(OC)c(OC)cc1OC : is its growth inhibition no less than 50%?
stdout: 1.0

###

# protocol_notes: NCI Yeast Anticancer Drug Screen. Data for the bub3 strain (AID 167)
# condition_label: S. cerevisiae bub3 mutant strain, at 50.0 µM (retest, dose inferred, filed as 5.0)
This is part of a sample that, as a whole, favours compounds with a hit. Of some 79,000 tested, about 15% had one in any assay. Activity calls are given as the source filed them. Cut-off read from the data, not from the text of the source: active = growth inhibition above about 70%; inactive = the rest.
Bench note: report the call from active, inactive

stdin: What classification did N#CC(C#N)=c1c2nsnc2c(=C(C#N)C#N)c2nsnc12 end up with in this test?
stdout: active

###

# protocol_notes: NCI Yeast Anticancer Drug Screen. Data for the rad50 strain (AID 155);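 also: 0% = growth of vehicle-only cultures of the same strain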
# condition_label: S. cerevisiae rad50 strain growth inhibition; at 50.0 µM (retest, dose inferred, filed as 5.0); active compounds read high
This is part of a sample that, as a whole, favours compounds with a hit. Of some 79,000 tested, about 15% had one in any assay.
property_name: growth inhibition (%)
Answer format: numeric, % implied, no suffix.

INSERT INTO results (compound, measured_value) VALUES
  ('O=C(/C=C/c1ccc([N+](=O)[O-])o1)N1CCN(Cc2ccccc2)CC1', 78),
  ('Oc1ccc(N=Nc2cc(Cl)ccc2Cl)cc1', 95),
  ('N#Cc1c2c(c(N=[N+]=[N-])n3c1nc1ccccc13)CCCC2', 95),
  ('N#Cc1c(N)nc2c(N=Nc3ccccc3)c(N)nn2c1Nc1ccccc1', 38),
  ('Nc1ccccc1-c1nc2c(ccc3ccccc32)[nH]1', 10),
  ('COc1cc(C(c2cc3c(cc2O)OCO3)N2CCN(C(c3ccc(O)c(OC)c3)c3cc4c(cc3O)OCO4)CC2)ccc1O (stereo not given)', 98),
  ('O=C1C(C=NC(=S)c2ccccc2)=C(O)c2ccccc21', 72),
  ('CC(CC(=O)c1ccc2sc3ccccc3c2c1)C(=O)O (stereo not given)', 35),
  ('Cc1ccc(S(=O)(=O)OC(C=O)C(O)C(O)COC(c2ccccc2)(c2ccccc2)c2ccccc2)cc1 (stereo not given)', 98);

stdin: Fill in: growth inhibition of CC(=O)NC1=C(Sc2ccc([N+](=O)[O-])cc2)C(=O)c2ccccc2C1=O is ___
stdout: 98
